Assay: Partition coefficient (logD2.0)
Type: physicochemical
Settings: octanol/water, pH 2; read-out: logD
The reader will find reported logD values listed item by item below.
Keep it simple and answer with nothing but the number.

CN(C)c1ccc(C(=O)O)cc1
1.28
O=C(O)c1cc(I)cc(I)c1I
3.45

Entry O=C(O)c1cccc2ccccc12 ; logD = 2.98

Reported logD for O=C(O)c1ccccc1I was 2.45

logD measured on O=C(O)c1ccccc1F = 1.52

Per the record, NCc1ccc(C(=O)O)cc1 has logD of 1.03

Query O=C(O)c1ccc2ccccc2c1 yields logD of 2.78

----------
Overview of recorded logD for various compounds
Test: Partition coefficient (logD2.0)
Type: physicochemical
Conditions: octanol/water, pH 2; read-out: logD
Give a plain numeric answer without units written out.

[N-]=[N+]=Nc1ccc(C(=O)O)cc1
2.54

For record CC(C)c1ccc(C(=O)O)cc1 the listed logD is 3.28

// recorded logD for CCCOc1ccc(C(=O)O)cc1 : 3.09

----------
# key: entry, value: Log LD50
// no unit string in output, number only

// below: answered molecules
O=C(O)c1ccc([N+](=O)[O-])cc1 [4-NITROBENZOIC ACID]
-1.52
O=C(O)c1ccc(O)cc1 [PARABEN]
-1.29
O=C(O)c1ccc(Cl)c(Cl)c1
-2.28
O=C(O)c1cccc2ccccc12 [NAPHTHOIC ACID]
-1.46

Next item in the queue.
Kindly note the recorded Log LD50 for Nc1ccc(C(=O)O)cc1 , which is -1.54

----------
Each item that follows carries a reported logD.
Assay: Partition coefficient (logD2.0)
Format: physicochemical
Settings: octanol/water

Example cases with answers are listed next.
O=C(O)c1ccc(I)cc1
3.05
O=C(O)c1ccccc1Cl
2.02
O=C(O)c1cccc(Br)c1
2.86
Cc1ccc(C(=O)O)cc1
2.26
O=C(O)c1cccc(O)c1 [3-HYDROXYBENZOIC ACID]
1.55

Lab book: logD of O=C(O)c1ccc([N+](=O)[O-])cc1 noted as 1.84

Value of measured logD for the entry O=C(O)c1ccc(Br)cc1 : 2.81

The value of logD measured for the compound O=C(O)c1cccc(Cl)c1 turned out to be 2.72

Item: O=C(O)c1cccc([N+](=O)[O-])c1 | logD: 1.69

Entry O=C(O)c1ccc(Cl)c(Cl)c1 , logD reported as 3.25

Please fill in: logD reported for O=C(O)c1cccc(I)c1 = 3.13

----------
Listed here: items and their measured Log LD50.
// keep it numeric: no unit symbol after the value

# count of solved cases: 3
O=C(O)c1c(Cl)cccc1Cl
-1.22
O=C(O)c1ccc(F)cc1
-1.85
COc1ccc(C(=O)O)cc1 [p-ANISIC ACID]
-1.6

// sample O=C(O)c1cc(Cl)ccc1Cl , its Log LD50 was -1.77

In plain terms, O=C(O)c1ccc2ccccc2c1 [BETA-NAPHTOIC ACID] has a documented Log LD50 of -1.92

Notebook: O=C(O)c1ccc(I)cc1 , Log LD50 read as -2.31

Per the record, O=C(O)c1cccc(Cl)c1 has Log LD50 of -2

For reference, reported Log LD50 for O=C(O)c1ccc(Br)cc1 stands at -2.03

----------
Experiment: log (1/C') was determined
Type: ADME
Mark each entry Yes if its Log 1/C sits below 1, and No for all others.

O=C(O)c1cccc(I)c1
No

Q) Lab log: compare recorded Log 1/C with 1; is it strictly lower for O=C(O)c1cccc(O)c1 [3-HYDROXYBENZOIC ACID] ?
A) Yes

Q) hey, is Log 1/C for O=C(O)c1ccccc1Br lower than 1 or not?
A) No

Q) Bench note: check whether O=C(O)c1ccccc1F shows Log 1/C below 1
A) No

Q) Is 1 strictly greater than the compound's reported Log 1/C? compound: O=C(O)c1cccc(Cl)c1
A) No

Q) Given COc1ccc(C(=O)O)cc1 , is recorded Log 1/C strictly lower than 1?
A) Yes
